Listed here: items and their measured IC50.
assayed_target: KRAS Q61H (Homo sapiens (Human), UniProt P01116+P62937, Q61H)
Sequence (P01116-2 other isoform, or with tags, fused parts or gaps Q61H): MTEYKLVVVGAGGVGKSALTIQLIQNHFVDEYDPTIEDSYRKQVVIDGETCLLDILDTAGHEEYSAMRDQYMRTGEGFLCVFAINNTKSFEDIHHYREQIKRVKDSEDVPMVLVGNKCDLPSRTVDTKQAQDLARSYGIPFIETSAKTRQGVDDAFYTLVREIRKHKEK
Sequence (P62937 whole entry): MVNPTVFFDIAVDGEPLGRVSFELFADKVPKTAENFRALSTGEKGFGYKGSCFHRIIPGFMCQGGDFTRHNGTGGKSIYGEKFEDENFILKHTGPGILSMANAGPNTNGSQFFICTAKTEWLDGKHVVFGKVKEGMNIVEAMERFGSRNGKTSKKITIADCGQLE
test_details: Ras-Raf (BRAF RBD) disruption / FRET / MOA assay, KRAS Q61H
Assay type: biochemical
measurement_conditions: Ras-Raf disruption/FRET/MOA assay; class symbols; read-out: KRAS Q61H FRET data IC50

- molecule: "C=CC(=O)N1CC[C@H](C(=O)N(C)[C@H](C(=O)N[C@H]2CC3=CCCN(C3)c3ccc4c(c3)c(c(-c3cccnc3[C@H](C)OC)n4CC)CC(C)(C)COC(=O)[C@@H]3CCCN(N3)C2=O)C(C)C)C1 (atropisomer, axis not shown) [Example A486]"
  IC50: "> 10000 nM"
- molecule: "C=CC(=O)N1CCN(C(=O)N(C)[C@H](C(=O)N[C@H]2Cc3nc(cs3)-c3ccc4c(c3)c(c(-c3cccnc3[C@H](C)OC)n4CC(F)(F)F)CC(C)(C)COC(=O)[C@@H]3CCCN(N3)C2=O)C(C)C)CC12CC2 (atropisomer, axis not shown) [Example A679]"
  IC50: "10 to 100 nM"
- molecule: "CO[C@@H](C)c1ncccc1-c1c2c3cc(ccc3n1CC(F)(F)F)-c1csc(n1)C[C@H](NC(=O)[C@H](C(C)C)N(C)C(=O)N1CCN(C(=O)/C=C/CN(C)C)C3(CC3)C1)C(=O)N1CCC[C@H](N1)C(=O)OCC(C)(C)C2 (atropisomer, axis not shown) [Example A664]"
  IC50: "10 to 100 nM"
- molecule: "CCn1c(-c2cccnc2[C@H](C)OC)c2c3cc(ccc31)-c1csc(n1)C[C@H](NC(=O)C[C@H](C)OC1CN(C(=O)C#CC(C)(C)N(C)C)C1)C(=O)N1CCC[C@H](N1)C(=O)OCC(C)(C)C2 (atropisomer, axis not shown) [Example A637]"
  IC50: "1000 to 10000 nM"

meta.source: patent US11566007B2
